- Test system: Liver microsome
- Test details: Prodrug conversion in rat liver microsomes assessed as half life
Classify: class 1 when t1/2 is strictly less than 40 min; class 0 when t1/2 is not.

CCOc1cc(NC(=O)C2(NC(=O)c3ccc4c(C5CCCC5)c(-c5ncc(Cl)cn5)n(C)c4c3)CCC2)ccc1/C=C/C(=O)OCC(=O)N1CCOCC1 : class 0
CCOc1cc(NC(=O)C2(NC(=O)c3ccc4c(C5CCCC5)c(-c5ncc(Cl)cn5)n(C)c4c3)CCC2)ccc1/C=C/C(=O)OC : class 0

q: Given "CCOc1cc(NC(=O)C2(NC(=O)c3ccc4c(C5CCCC5)c(-c5ncc(Cl)cn5)n(C)c4c3)CCC2)ccc1/C=C/C(=O)OC(=O)C[C@H](O)C(=O)O" , is recorded t1/2 strictly lower than 40 min?
a: class 0

q: Quick check: t1/2 of "CCOc1cc(NC(=O)C2(NC(=O)c3ccc4c(C5CCCC5)c(-c5ncc(Cl)cn5)n(C)c4c3)CCC2)ccc1/C=C/C(=O)OCOP(=O)(O)OC(C)(C)C" under 40 min?
a: class 1

q: Does "CCOc1cc(NC(=O)C2(NC(=O)c3ccc4c(C5CCCC5)c(-c5ncc(Cl)cn5)n(C)c4c3)CCC2)ccc1/C=C/C(=O)OCCN1CCN(C)CC1" have t1/2 strictly under 40 min?
a: class 1

q: # strict comparison: is reported t1/2 < 40 min? input = "CCOc1cc(NC(=O)C2(NC(=O)c3ccc4c(C5CCCC5)c(-c5ncc(Cl)cn5)n(C)c4c3)CCC2)ccc1/C=C/C(=O)OCCNN1CCCC1"
a: class 0

----------
- Test details: Prodrug conversion in simulated gastric fluid assessed as half life
- Type: ADME
- Run conditions: simulated gi fluid
Metric name: t1/2 (min)
All answers are understood in min, so give the number only.

CCOc1cc(NC(=O)C2(NC(=O)c3ccc4c(C5CCCC5)c(-c5ncc(Cl)cn5)n(C)c4c3)CCC2)ccc1/C=C/C(=O)OCC(N)=O : 36

Below: the item to evaluate.
q: Find the recorded t1/2 belonging to "CCCCCCOC(=O)/C=C/c1ccc(NC(=O)C2(NC(=O)c3ccc4c(C5CCCC5)c(-c5ncc(Cl)cn5)n(C)c4c3)CCC2)cc1OCC" and report it.
a: 53

----------
- Test system: Liver microsome
- Test details: Prodrug conversion in human liver microsomes assessed as half life
# binarize t1/2: threshold 1 h inclusive, high side 1, low side 0

CCCCOC(=O)COC(=O)/C=C/c1ccc(NC(=O)C2(NC(=O)c3ccc4c(C5CCCC5)c(-c5ncc(Cl)cn5)n(C)c4c3)CCC2)cc1OCC : 1
CCOc1cc(NC(=O)C2(NC(=O)c3ccc4c(C5CCCC5)c(-c5ncc(Cl)cn5)n(C)c4c3)CCC2)ccc1/C=C/C(=O)OCCC(C)C : 1
CCOc1cc(NC(=O)C2(NC(=O)c3ccc4c(C5CCCC5)c(-c5ncc(Cl)cn5)n(C)c4c3)CCC2)ccc1/C=C/C(=O)OC : 1
CCOc1cc(NC(=O)C2(NC(=O)c3ccc4c(C5CCCC5)c(-c5ncc(Cl)cn5)n(C)c4c3)CCC2)ccc1/C=C/C(=O)OCOC(=O)C(C)(C)C : 1

q: Test whether the molecule "CCOc1cc(NC(=O)C2(NC(=O)c3ccc4c(C5CCCC5)c(-c5ncc(Cl)cn5)n(C)c4c3)CCC2)ccc1/C=C/C(=O)OCC(=O)NC" records t1/2 of 1 h or higher.
a: 0

q: Test whether the molecule "CCOc1cc(NC(=O)C2(NC(=O)c3ccc4c(C5CCCC5)c(-c5ncc(Cl)cn5)n(C)c4c3)CCC2)ccc1/C=C/C(=O)OCC(=O)N(C)C(C)C" records t1/2 of 1 h or higher.
a: 0

q: Exam item: decide whether the reported t1/2 for "CCOc1cc(NC(=O)C2(NC(=O)c3ccc4c(C5CCCC5)c(-c5ncc(Cl)cn5)n(C)c4c3)CCC2)ccc1/C=C/C(=O)NCCO" is at least 1 h.
a: 1

q: Does t1/2 meet or surpass 1 h for "CCCCCCOC(=O)/C=C/c1ccc(NC(=O)C2(NC(=O)c3ccc4c(C5CCCC5)c(-c5ncc(Cl)cn5)n(C)c4c3)CCC2)cc1OCC" ?
a: 1

q: Could you verify whether the entry "CCOc1cc(NC(=O)C2(NC(=O)c3ccc4c(C5CCCC5)c(-c5ncc(Cl)cn5)n(C)c4c3)CCC2)ccc1/C=C/C(=O)OCC(=O)OCc1ccccc1" shows t1/2 of no less than 1 h?
a: 1

q: Reported t1/2 reaches at least 1 h for "CCOc1cc(NC(=O)C2(NC(=O)c3ccc4c(C5CCCC5)c(-c5ncc(Cl)cn5)n(C)c4c3)CCC2)ccc1/C=C/C(=O)OCC(=O)O" ?
a: 1

q: Textbook exercise: given the entry "CCOc1cc(NC(=O)C2(NC(=O)c3ccc4c(C5CCCC5)c(-c5ncc(Cl)cn5)n(C)c4c3)CCC2)ccc1/C=C/C(=O)OCC(=O)OC" , state whether its t1/2 is greater than or equal to 1 h.
a: 1

q: Entry "CCOc1cc(NC(=O)C2(NC(=O)c3ccc4c(C5CCCC5)c(-c5ncc(Cl)cn5)n(C)c4c3)CCC2)ccc1/C=C/C(=O)OCCN1CCOCC1" : is its t1/2 no less than 1 h?
a: 0

q: Kindly determine if t1/2 recorded for "CCOc1cc(NC(=O)C2(NC(=O)c3ccc4c(C5CCCC5)c(-c5ncc(Cl)cn5)n(C)c4c3)CCC2)ccc1/C=C/C(=O)OCCNN1CCCC1" is above or exactly 1 h.
a: 0

q: Does the reported t1/2 for "CCOc1cc(NC(=O)C2(NC(=O)c3ccc4c(C5CCCC5)c(-c5ncc(Cl)cn5)n(C)c4c3)CCC2)ccc1/C=C/C(=O)OCC(=O)OCc1ccc(Cl)cc1" fall at or above the 1 h mark?
a: 1

q: Please indicate if the recorded t1/2 for "CCCOC(=O)/C=C/c1ccc(NC(=O)C2(NC(=O)c3ccc4c(C5CCCC5)c(-c5ncc(Cl)cn5)n(C)c4c3)CCC2)cc1OCC" meets or exceeds 1 h.
a: 1

q: Quick check, t1/2 >= 1 h? "CCOc1cc(NC(=O)C2(NC(=O)c3ccc4c(C5CCCC5)c(-c5ncc(Cl)cn5)n(C)c4c3)CCC2)ccc1/C=C/C(=O)OCc1ccccc1"
a: 1

q: For this molecule, is measured t1/2 1 h or higher? "CCOc1cc(NC(=O)C2(NC(=O)c3ccc4c(C5CCCC5)c(-c5ncc(Cl)cn5)n(C)c4c3)CCC2)ccc1/C=C/C(=O)N(C)CCO"
a: 1

q: Could you please find out whether "CCOc1cc(NC(=O)C2(NC(=O)c3ccc4c(C5CCCC5)c(-c5ncc(Cl)cn5)n(C)c4c3)CCC2)ccc1/C=C/C(=O)OCC(=O)N1CCOCC1" has t1/2 that meets 1 h or exceeds it?
a: 0

q: Check if t1/2 >= 1 h (inclusive). Item: "CCOc1cc(NC(=O)C2(NC(=O)c3ccc4c(C5CCCC5)c(-c5ncc(Cl)cn5)n(C)c4c3)CCC2)ccc1/C=C/C(=O)OCOP(=O)(O)O"
a: 0

q: Quick check, t1/2 >= 1 h? "CCOc1cc(NC(=O)C2(NC(=O)c3ccc4c(C5CCCC5)c(-c5ncc(Cl)cn5)n(C)c4c3)CCC2)ccc1/C=C/C(=O)OCC[N+](C)(C)C.[Br-]"
a: 1

Ref: ChEMBL document CHEMBL3352534
